Target: hERG (KCNH2) (Homo sapiens, UniProt Q12809)
Sequence (Q12809 whole entry): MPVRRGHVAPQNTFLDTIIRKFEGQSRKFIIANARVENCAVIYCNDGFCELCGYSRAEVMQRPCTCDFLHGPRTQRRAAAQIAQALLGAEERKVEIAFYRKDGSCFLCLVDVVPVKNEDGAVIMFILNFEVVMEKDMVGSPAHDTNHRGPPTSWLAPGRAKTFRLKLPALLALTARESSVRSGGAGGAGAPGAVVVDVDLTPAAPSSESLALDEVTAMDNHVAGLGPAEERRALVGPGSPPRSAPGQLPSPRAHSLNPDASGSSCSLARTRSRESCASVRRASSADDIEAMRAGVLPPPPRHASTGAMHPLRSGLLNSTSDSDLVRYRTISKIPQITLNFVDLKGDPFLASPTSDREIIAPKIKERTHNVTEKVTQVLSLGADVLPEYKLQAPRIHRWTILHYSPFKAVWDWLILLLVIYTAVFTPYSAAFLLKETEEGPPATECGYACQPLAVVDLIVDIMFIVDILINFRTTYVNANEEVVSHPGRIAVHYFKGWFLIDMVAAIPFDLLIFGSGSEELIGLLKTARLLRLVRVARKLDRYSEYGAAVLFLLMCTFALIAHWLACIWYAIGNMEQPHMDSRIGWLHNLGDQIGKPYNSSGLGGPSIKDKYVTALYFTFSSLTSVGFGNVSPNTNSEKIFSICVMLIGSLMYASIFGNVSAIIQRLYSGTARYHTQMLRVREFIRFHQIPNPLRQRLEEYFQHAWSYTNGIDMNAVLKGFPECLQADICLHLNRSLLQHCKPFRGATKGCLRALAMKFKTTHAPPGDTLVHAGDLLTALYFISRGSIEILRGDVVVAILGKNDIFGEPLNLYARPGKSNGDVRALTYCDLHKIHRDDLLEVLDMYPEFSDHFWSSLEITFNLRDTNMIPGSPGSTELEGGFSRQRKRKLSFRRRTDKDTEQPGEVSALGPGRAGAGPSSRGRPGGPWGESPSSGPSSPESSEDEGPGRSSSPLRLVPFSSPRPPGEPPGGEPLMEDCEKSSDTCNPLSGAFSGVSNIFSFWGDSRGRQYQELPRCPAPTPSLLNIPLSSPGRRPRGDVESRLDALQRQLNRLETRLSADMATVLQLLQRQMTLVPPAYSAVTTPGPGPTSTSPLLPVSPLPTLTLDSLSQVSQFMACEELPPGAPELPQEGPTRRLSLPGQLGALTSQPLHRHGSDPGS
Experiment: Displacement of [3H]dofetilide from hERG at 10 uM
Conditions: probe [3H]dofetilide, read-out: Activity
Classes based on inhibition at 10 µM: lower band = under 9%, central band = from 9% up to 40%, upper band = 40% and over

N[C@H]1CN(C(=O)c2cnc3ccccc3n2)C[C@H]1C(=O)N1CCCC1	lower band
Cc1cc(-n2cncn2)ccc1CN1C[C@H](N)[C@H](C(=O)N2CCC[C@H]2C#N)C1	upper band
N#Cc1ccc(CN2C[C@H](N)[C@H](C(=O)N3CCC[C@H]3C#N)C2)cc1	upper band
N#C[C@@H]1CCCN1C(=O)[C@@H]1CN(Cc2ccc(-c3cc[nH]n3)cc2)C[C@@H]1N	upper band
CCc1cc(CN2C[C@H](N)[C@H](C(=O)N3CCC[C@H]3C#N)C2)cc(CC)c1C#N	lower band
Cc1cc(CN2C[C@H](N)[C@H](C(=O)N3CCC[C@H]3C#N)C2)ccc1-n1cncn1	central band

Task: Each molecule maps to one class by inhibition at 10 µM. Which class for N#C[C@@H]1CCCN1C(=O)[C@@H]1CN(Cc2ccc(-c3csnn3)cc2)C[C@@H]1N ?
Result: upper band

Task: Cool, now N[C@H]1CN(Cc2ccc(-c3csnn3)cc2)C[C@H]1C(=O)N1CCCC1
Result: upper band

Task: Now this one: Cc1nnc(-c2ccc(CN3C[C@H](N)[C@H](C(=O)N4CCC[C@H]4C#N)C3)cc2)o1
Result: lower band

Task: # repeat for N[C@H]1CN(Cc2ccc(-n3cnnn3)cc2)C[C@H]1C(=O)N1CCCC1
Result: upper band

Task: Same read-out for N[C@H]1CN(C(=O)c2ccc(-n3cncn3)cc2)C[C@H]1C(=O)N1CCCC1 ?
Result: central band

Task: How about N[C@H]1CN(C(=O)c2cc3ccccc3s2)C[C@H]1C(=O)N1CCCC1 ?
Result: lower band

###

Molecular target: hERG (KCNH2) (Homo sapiens)
Experiment: Displacement of [3H]dofetilide from hERG at 10 uM
Conditions: probe [3H]dofetilide, read-out: Activity
Lab note: compare inhibition at 10 µM against 10%. Equal or greater, write Y. Smaller, write N.

N#C[C@@H]1CCCN1C(=O)[C@@H]1CN(Cc2cnc3ccccc3c2)C[C@@H]1N	Y
N#C[C@@H]1CCCN1C(=O)[C@@H]1CN(Cc2ccc(-n3nccn3)cc2)C[C@@H]1N	Y
N#Cc1ccc2c(c1)CCC2N1C[C@H](N)[C@H](C(=O)N2CCC[C@H]2C#N)C1 (stereo not given in full)	Y

Now for a further compound.
Task: For this compound, is measured inhibition at 10 µM 10% or higher? N#C[C@@H]1CCCN1C(=O)[C@@H]1CN(C2CCOc3ccccc32)C[C@@H]1N (stereo not given in full)
Result: N

###

Test: Cmax in Sprague-Dawley rat at 5 mg/kg, po
Format: ADME, organism-based
Set-up: dose 5 mg/kg, route oral
Conditions: in vivo
Metric name: Cmax (ng/mL)
Numbers only, in ng/mL.

Task: Would you kindly share the measured Cmax for CC(c1ccc(-n2cncn2)cc1)N1C[C@H](N)[C@H](C(=O)N2CCC[C@H]2C#N)C1 (stereo partly specified) ?
Result: 1400

###

Target: Voltage-gated inwardly rectifying potassium channel KCNH2 (Homo sapiens, UniProt Q12809)
Sequence (Q12809 whole entry): as the sequence (Q12809 whole entry) above
Test: Inhibition of hERG by patch clamp assay
So I've got a bunch of compounds here, and I need their IC50 values.
Numbers only, in µM.

CC(c1ccc(C#N)cc1)N1C[C@H](N)[C@H](C(=O)N2CCC[C@H]2C#N)C1 (stereo not given in full)	10

Provide IC50 for all items below, preserving their order.
1. Cc1cc(CN2C[C@H](N)[C@H](C(=O)N3CCC[C@H]3C#N)C2)cc(C)c1C#N
2. N#C[C@@H]1CCCN1C(=O)[C@@H]1CN(Cc2ccc(-n3cncn3)cc2)C[C@@H]1N
3. Cc1nnc(-c2ccc(CN3C[C@H](N)[C@H](C(=O)N4CCC[C@H]4C#N)C3)cc2)o1

Result:
[28.9, 1.8, 165]

###

Target: hERG (KCNH2) (Homo sapiens)
Test: Displacement of [3H]dofetilide from hERG at 10 uM
Details: probe [3H]dofetilide, read-out: Activity
Metric name: inhibition at 10 µM

Some solved entries appear below for comparison.
N[C@H]1CN(C(=O)c2ccc3ccccc3c2)C[C@H]1C(=O)N1CCCC1	4%
N#C[C@@H]1CCCN1C(=O)[C@@H]1CN(Cc2ccc(-n3cncn3)cc2)C[C@@H]1N	40%
N[C@H]1CN(C(=O)c2cc3ccccc3cn2)C[C@H]1C(=O)N1CCCC1	0.5%
Cn1cc(-c2ccc(CN3C[C@H](N)[C@H](C(=O)N4CCC[C@H]4C#N)C3)cc2)cn1	71%
N#Cc1cc(CN2C[C@H](N)[C@H](C(=O)N3CCCC3)C2)ccc1F	9%

Please supply inhibition at 10 µM for each of the following items, keeping them in order.
1. N[C@H]1CN(C(=O)c2cc3cc(Cl)ccc3o2)C[C@H]1C(=O)N1CCCC1
2. N[C@H]1CN(Cc2cnc3ccccc3c2)C[C@H]1C(=O)N1CCCC1
3. CC(c1ccc([N+](=O)[O-])cc1)N1C[C@H](N)[C@H](C(=O)N2CCCC2)C1 (stereo not given in full)
4. N[C@H]1CN(Cc2ccc(F)c(F)c2)C[C@H]1C(=O)N1CCCC1
5. N[C@H]1CN(C(=O)c2ccc3ncccc3c2)C[C@H]1C(=O)N1CCCC1

Result:
1: 14%; 2: 32%; 3: 13%; 4: 19%; 5: 19%

###

Each entry below carries its measured pIC50, system: Dipeptidyl peptidase 8 (Homo sapiens, UniProt Q6V1X1).
Sequence (Q6V1X1 whole entry): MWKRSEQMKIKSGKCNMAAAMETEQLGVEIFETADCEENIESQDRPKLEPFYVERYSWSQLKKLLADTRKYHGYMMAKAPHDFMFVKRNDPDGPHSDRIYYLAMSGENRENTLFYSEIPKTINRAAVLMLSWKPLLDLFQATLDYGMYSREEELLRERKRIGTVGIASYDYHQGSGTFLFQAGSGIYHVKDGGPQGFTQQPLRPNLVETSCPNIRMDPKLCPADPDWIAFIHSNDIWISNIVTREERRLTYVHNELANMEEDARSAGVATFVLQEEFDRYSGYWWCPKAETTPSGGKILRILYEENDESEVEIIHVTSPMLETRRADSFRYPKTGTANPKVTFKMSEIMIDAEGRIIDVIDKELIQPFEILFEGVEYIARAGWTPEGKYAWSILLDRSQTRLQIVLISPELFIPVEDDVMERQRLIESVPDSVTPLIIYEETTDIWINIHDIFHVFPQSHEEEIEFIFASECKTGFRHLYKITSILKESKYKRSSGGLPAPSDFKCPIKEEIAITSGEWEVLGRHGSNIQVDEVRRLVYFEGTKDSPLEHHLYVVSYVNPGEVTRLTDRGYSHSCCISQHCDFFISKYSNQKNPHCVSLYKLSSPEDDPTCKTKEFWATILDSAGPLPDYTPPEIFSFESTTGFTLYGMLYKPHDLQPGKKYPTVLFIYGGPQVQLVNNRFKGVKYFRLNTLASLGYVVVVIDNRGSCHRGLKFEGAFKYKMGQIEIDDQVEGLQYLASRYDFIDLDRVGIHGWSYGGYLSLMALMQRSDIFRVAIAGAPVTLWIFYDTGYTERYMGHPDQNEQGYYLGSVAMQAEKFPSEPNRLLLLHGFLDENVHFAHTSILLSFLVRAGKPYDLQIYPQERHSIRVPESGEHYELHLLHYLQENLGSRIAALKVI
Answers are plain numbers, as −log10 of the molar value.

Consider the reported pIC50 for these compounds:
N#C[C@@H]1CCCN1C(=O)[C@@H]1CN(Cc2ccc(-c3csnn3)cc2)C[C@@H]1N	6.72
Cn1nccc1-c1ccc(CN2C[C@H](N)[C@H](C(=O)N3CCC[C@H]3C#N)C2)cc1	6.83
N#Cc1cc(CN2C[C@H](N)[C@H](C(=O)N3CCC[C@H]3C#N)C2)ccc1F	6.04
N#C[C@@H]1CCCN1C(=O)[C@@H]1CN(Cc2ccc(-n3cncn3)cc2)C[C@@H]1N	6.34

Consider the record given below.
Task: Entry CC(c1ccc(C#N)cc1)N1C[C@H](N)[C@H](C(=O)N2CCC[C@H]2C#N)C1 (stereo not given in full) : reported pIC50 = ?
Result: 5.98

###

Assay: Half life in Sprague-Dawley rat at 5 mg/kg, po
Type: ADME, organism-based
Parameters: dose 5 mg/kg, route oral
Conditions: in vivo
Metric name: half-life (h)
Answers are plain numbers, in h.

Task: Need half-life, item CC(c1ccc(-n2cncn2)cc1)N1C[C@H](N)[C@H](C(=O)N2CCC[C@H]2C#N)C1 (stereo partly specified)
Result: 4.3

###

Assign inhibition at 10 µM to each entry below.
Target: hERG (KCNH2) (Homo sapiens)
Assay: Displacement of [3H]dofetilide from hERG at 10 uM
Settings: probe [3H]dofetilide, read-out: Activity
Answers are plain numbers, in %.

Some solved cases for reference:
N[C@H]1CN(C(=O)c2cnc3ccccc3c2)C[C@H]1C(=O)N1CCCC1	9
Cn1nccc1-c1ccc(CN2C[C@H](N)[C@H](C(=O)N3CCC[C@H]3C#N)C2)cc1	36
CC(c1ccc(-n2cncn2)cc1)N1C[C@H](N)[C@H](C(=O)N2CCC[C@H]2C#N)C1 (some centres not stated)	7
N[C@H]1CN(C(=O)c2ccc(-n3cnnn3)cc2)C[C@H]1C(=O)N1CCCC1	15
CC(c1ccc(C#N)cc1)N1C[C@H](N)[C@H](C(=O)N2CCC[C@H]2C#N)C1 (some centres not stated)	18

# map each compound to its inhibition at 10 µM
1. Cc1ncn(-c2ccc(CN3C[C@H](N)[C@H](C(=O)N4CCC[C@H]4C#N)C3)cc2)n1
2. Cc1cc(CN2C[C@H](N)[C@H](C(=O)N3CCC[C@H]3C#N)C2)cc(C)c1C#N

Result:
4
21
